protocol: in vitro
run.parameters: human
measurement.label: CC50

The compound identified as "Nc1ccn([C@@H]2CS[C@H](CO)O2)c(=O)n1" registered its CC50 at > 10 µM
